# Target system: Glycogen phosphorylase, muscle form (Oryctolagus cuniculus)
# Sequence (P00489 whole entry): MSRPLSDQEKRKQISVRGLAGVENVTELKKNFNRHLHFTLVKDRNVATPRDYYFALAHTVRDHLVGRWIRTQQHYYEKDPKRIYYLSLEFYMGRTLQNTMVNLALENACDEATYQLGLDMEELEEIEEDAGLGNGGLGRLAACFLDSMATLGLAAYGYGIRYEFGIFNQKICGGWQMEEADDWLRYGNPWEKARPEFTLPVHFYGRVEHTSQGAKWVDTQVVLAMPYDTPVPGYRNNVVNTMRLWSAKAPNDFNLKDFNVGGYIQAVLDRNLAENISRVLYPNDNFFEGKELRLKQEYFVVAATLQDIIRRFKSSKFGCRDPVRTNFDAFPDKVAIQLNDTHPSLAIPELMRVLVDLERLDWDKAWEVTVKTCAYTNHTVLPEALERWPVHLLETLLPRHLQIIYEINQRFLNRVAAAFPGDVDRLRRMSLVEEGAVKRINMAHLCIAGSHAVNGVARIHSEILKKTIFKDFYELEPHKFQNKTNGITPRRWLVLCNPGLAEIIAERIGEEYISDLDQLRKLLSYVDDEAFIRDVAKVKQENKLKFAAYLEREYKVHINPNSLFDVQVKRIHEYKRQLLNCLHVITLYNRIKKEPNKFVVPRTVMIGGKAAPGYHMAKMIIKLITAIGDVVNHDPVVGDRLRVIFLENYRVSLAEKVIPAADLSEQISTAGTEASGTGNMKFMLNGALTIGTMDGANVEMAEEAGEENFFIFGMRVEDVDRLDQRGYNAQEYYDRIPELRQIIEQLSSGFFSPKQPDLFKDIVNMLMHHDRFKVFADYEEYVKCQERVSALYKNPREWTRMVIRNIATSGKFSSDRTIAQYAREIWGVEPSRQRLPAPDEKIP
# Experiment description: Competitive inhibition of rabbit muscle glycogen phosphorylase-b using alpha-D-glucose-1-phosphate as substrate by Dixon plot analysis
Assay metric: Ki (µM)

1. OC[C@H]1O[C@@H](c2nc(-c3ccccc3)cs2)[C@H](O)[C@@H](O)[C@@H]1O; 310
2. OC[C@H]1O[C@@H](c2nc(-c3ccccc3)c[nH]2)[C@H](O)[C@@H](O)[C@@H]1O; 0.28
3. OC[C@H]1O[C@@H](c2nc(-c3ccc4ccccc4c3)c[nH]2)[C@H](O)[C@@H](O)[C@@H]1O; 0.031
4. OC[C@H]1O[C@@H](c2nc(-c3ccc4ccccc4c3)cs2)[C@H](O)[C@@H](O)[C@@H]1O; 158
